Test system: galium (catchweed bedstraw, Galium aparine)
Assay: Test A postemergence, galium
Type: in vivo
Conditions: Postemergence, 500 g ai/ha; visual injury, 0 to 100 scale (0 no effect, 100 complete control), approx. 10 days

[
  {
    "compound": "Cc1cc(Cl)c(NS(=O)(=O)C(F)(F)F)cc1C(=O)N(C)C",
    "measurement.target": "galium (catchweed bedstraw, Galium aparine)",
    "Plant response rating, Galium": 90
  },
  {
    "compound": "Cc1cc(C)c(N(S(C)(=O)=O)S(=O)(=O)C(F)(F)F)cc1-c1cc(C(C)C)nn(C)c1=O",
    "measurement.target": "galium (catchweed bedstraw, Galium aparine)",
    "Plant response rating, Galium": 0
  },
  {
    "compound": "Cc1cc(Cl)c(NS(=O)(=O)C(F)(F)F)cc1-c1cn(C)c(=O)n(C)c1=O",
    "measurement.target": "galium (catchweed bedstraw, Galium aparine)",
    "Plant response rating, Galium": 90
  },
  {
    "compound": "Cc1cc(Cl)c(NS(=O)(=O)C(F)(F)F)cc1C(=O)N1CC(C)OC(C)C1 (stereo not shown)",
    "measurement.target": "galium (catchweed bedstraw, Galium aparine)",
    "Plant response rating, Galium": 90
  }
]

* * *

Test system: ragweed (common ragweed, Ambrosia artemisiifolia)
Test: Test A postemergence, ragweed
Type: in vivo
Settings: Postemergence, 125 g ai/ha; visual injury approx. 10 days; 0 to 100 scale (0 no effect, 100 complete control)
Description: Seeds of plant species selected from barnyardgrass (Echinochloa crus-galli), kochia (Bassia scoparia), ragweed (common ragweed, Ambrosia artemisiifolia), Ryegrass, Italian (Italian ryegrass, Lolium multiflorum), Foxtail, Giant (giant foxtail, Setaria faberi), and pigweed (Amaranthus retroflexus) were planted into a blend of loam soil and sand and treated preemergence with a directed soil spray using test chemicals formulated in a non-phytotoxic solvent mixture which included a surfactant. […]

[
  {
    "compound": "COC1CCCN(C(=O)c2cc(N(S(=O)(=O)C(F)(F)F)S(=O)(=O)C(F)(F)F)c(C)cc2C)C1 (centres unmarked)",
    "Plant response rating, Ragweed": 70
  },
  {
    "compound": "COc1cnn(C)c(=O)c1-c1cc(NS(=O)(=O)C(F)(F)F)c(C)cc1C",
    "Plant response rating, Ragweed": 0
  },
  {
    "compound": "Cc1cc(C)c(N(S(C)(=O)=O)S(=O)(=O)C(F)(F)F)cc1-c1cc(Cl)nn(C)c1=O",
    "Plant response rating, Ragweed": 0
  },
  {
    "compound": "Cc1cc(C)c(-c2cc(Cl)nn(C)c2=O)cc1NS(=O)(=O)C(F)(F)F",
    "Plant response rating, Ragweed": 20
  },
  {
    "compound": "Cc1cc(-c2cc(NS(=O)(=O)C(F)(F)F)c(C)cc2C)c(=O)n(C)n1",
    "Plant response rating, Ragweed": 0
  },
  {
    "compound": "CO[C@@H]1CCCN(C(=O)c2cc(N(S(=O)(=O)C(F)(F)F)S(=O)(=O)C(F)(F)F)c(C)cc2C)C1",
    "Plant response rating, Ragweed": 0
  },
  {
    "compound": "Cc1cc(Cl)c(NS(=O)(=O)C(F)(F)F)cc1C(=O)N(C)C",
    "Plant response rating, Ragweed": 80
  },
  {
    "compound": "Cc1cc(C)c(-c2cc(C(C)C)nn(C)c2=O)cc1NS(=O)(=O)C(F)(F)F",
    "Plant response rating, Ragweed": 40
  }
]
